target: Toll-like receptor 4 (Homo sapiens); assay: inhibitors of human TLR4-MyD88 binding (AID 811); details: Cell-based TLR4-MyD88 binding inhibition assay; at 10 µM; hits give high values
The whole screen tested about 16,000 compounds, of which about 10 (0.06%) were called active. Shown is part of a subset that was picked to be rich in actives.
result-type: inhibition (%)

molecule=CC(C)(C)C(=O)NNC(=O)c1ccc(Oc2ccc(C3SCCS3)cc2)o1 result_value=-1.82
molecule=O=C(OCc1ccco1)c1cnc(Nc2ccc(OC(F)(F)F)cc2)nc1C(F)(F)F result_value=11.4
molecule=Cc1ccc(S(=O)(=O)NNC(=O)c2ccccc2N)cc1 result_value=-4.45
molecule=C/C(=N\NC(N)=S)c1csc(-c2ccccc2)n1 result_value=-3.92
molecule="O=[N+]([O-])c1ccc(C2CC2(Br)Br)cc1 (configuration not stated)" result_value=11.1
molecule=CSc1ccc(C(F)(F)F)cc1C(=O)/C=C/N(C)C result_value=-5.34
molecule=O=C(CSc1c(F)c(F)c(C(=O)O)c(F)c1F)Nc1cccc(C(F)(F)F)c1 result_value=7.76
molecule="CC(CC(=O)O)Oc1ccc(Cl)cc1[N+](=O)[O-] (configuration not stated)" result_value=-0.53
molecule=Cn1cnnc1SC/C=C/c1ccccc1 result_value=-13.5
molecule=CN(C)c1cccc2c1c(NC(=O)Nc1ccc(OCc3ccccc3)cc1)nn2C result_value=-5.12
molecule=O=C(Nc1ccc(I)cc1Cl)C(=S)NCc1cccs1 result_value=3.66
molecule=Cc1cc(/C(N)=N/OC(=O)c2cccs2)c(-c2ccccc2)o1 result_value=3.39

---

target: Toll-like receptor 4 (Homo sapiens) (UniProt O00206); assay: inhibitors of human TLR4-MyD88 binding (AID 811); settings: Cell-based TLR4-MyD88 binding inhibition assay; at 10 µM; hits give high values
Sequence (O00206 whole entry, looked up): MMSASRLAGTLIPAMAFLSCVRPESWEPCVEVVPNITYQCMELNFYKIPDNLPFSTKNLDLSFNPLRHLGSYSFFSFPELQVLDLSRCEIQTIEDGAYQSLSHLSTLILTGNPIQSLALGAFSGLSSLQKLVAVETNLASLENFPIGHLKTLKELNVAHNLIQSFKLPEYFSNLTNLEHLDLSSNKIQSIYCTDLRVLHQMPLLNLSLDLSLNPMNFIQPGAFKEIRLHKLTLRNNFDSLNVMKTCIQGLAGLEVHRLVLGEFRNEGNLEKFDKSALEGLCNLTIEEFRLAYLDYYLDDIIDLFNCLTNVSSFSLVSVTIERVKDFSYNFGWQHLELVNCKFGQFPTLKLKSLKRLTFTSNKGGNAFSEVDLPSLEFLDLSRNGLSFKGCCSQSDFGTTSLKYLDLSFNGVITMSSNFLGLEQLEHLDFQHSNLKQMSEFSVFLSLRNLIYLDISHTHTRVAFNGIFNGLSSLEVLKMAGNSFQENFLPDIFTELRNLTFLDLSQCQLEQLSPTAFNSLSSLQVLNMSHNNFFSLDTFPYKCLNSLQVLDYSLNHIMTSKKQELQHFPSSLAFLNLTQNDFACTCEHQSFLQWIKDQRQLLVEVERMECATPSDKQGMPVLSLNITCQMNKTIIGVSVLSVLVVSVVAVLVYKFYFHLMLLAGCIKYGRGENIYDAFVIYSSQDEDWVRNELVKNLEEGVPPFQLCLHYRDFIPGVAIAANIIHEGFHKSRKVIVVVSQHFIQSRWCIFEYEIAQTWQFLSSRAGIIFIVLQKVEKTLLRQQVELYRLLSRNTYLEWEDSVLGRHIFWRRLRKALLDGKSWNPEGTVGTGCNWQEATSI
Screen size: about 16,000 compounds; about 10 (0.06%) were called active. The sample as a whole holds a higher share of actives than the screen did.
# key: entry, value: inhibition
result-type: inhibition (%)

molecule=NC(=O)c1cccc2c1OCCO2 result_value=10.1
molecule=FC(F)(F)c1ccc(Cl)c(NC(=S)NN=C2CCCCCC2)c1 result_value=0.56
molecule=N/C(=N\OC(=O)c1ccc([N+](=O)[O-])o1)c1ccc(OCc2ccc(Cl)cc2)c(Cl)c1 result_value=-0.21
molecule=CC1=CC(=O)C(CCC2=CC(=O)C(C)=CC2=O)=CC1=O result_value=-7.79
molecule=CC1(C)CCc2cc(-c3ccnc(SCC(=O)c4ccccc4)n3)ccc2O1 result_value=-13.2
molecule=N#Cc1nc(-c2ccccc2)c(-c2ccccc2)nc1C#N result_value=9.3
molecule=O=C(NC(=O)c1ccno1)Nc1ccccc1Cl result_value=-1.38
molecule="COC(=O)c1cnc(N2CCCN(C(=O)C3COc4ccccc4O3)CC2)nc1C(F)(F)F (configuration not stated)" result_value=-1.67
molecule=Cc1cc2nsnc2cc1Cl result_value=0.39
molecule=CCCCc1ccc(S(N)(=O)=O)cc1 result_value=-0.44
molecule=Cn1cc(C(=O)c2ccc(Cl)cc2)cc1/C=C(\C#N)S(=O)(=O)c1ccc(C(F)(F)F)cn1 result_value=-4.67
molecule=CCOC(=O)c1sc(SC)c(-c2ccccc2)c1N result_value=2.9

---

Some compounds, each annotated with its measured inhibition.
biological target: Toll-like receptor 4 (Homo sapiens) (UniProt O00206); assay: inhibitors of human TLR4-MyD88 binding (AID 811); conditions: Cell-based TLR4-MyD88 binding inhibition assay; at 10 µM; hits give high values
About 10 (0.06%) of roughly 16,000 compounds were called active. The sample as a whole holds a higher share of actives than the screen did.
result-type: inhibition (%)

compound=COc1ccccc1NC(=O)c1ccc(C#Cc2ccccc2)o1 result_value=-2.2
compound=CCOC1=NC(C(F)(F)F)(C(F)(F)F)N=C(N2CCOCC2)O1 result_value=0.2
compound=COC(=O)c1cnc(Oc2ccc(N)cc2)cc1C(F)(F)F result_value=-9.53
compound=c1csc(-c2ccc(-c3ccon3)s2)c1 result_value=-1.22
compound=Cc1ccc(CC(=O)c2cccnc2)cc1 result_value=3.89
compound=O=C(NCc1ccccc1)c1cc2sccc2s1 result_value=3.11
compound=N/C(=N\OC(=O)c1cccc(Cl)c1)c1ccc2nonc2c1 result_value=1.32
compound=O=c1cc(-c2ccccc2)sc2ccc(Cl)cc12 result_value=5.03
compound=O=C(c1ccc(Oc2ccc(Cl)cc2)c([N+](=O)[O-])c1)N1CCCC1 result_value=0.91
compound=CN(C)c1cc(-c2cc(Cl)sc2Cl)oc(=O)c1Cl result_value=-4.82
compound=Cc1ccccc1C(=O)NNC(=O)c1ccccc1C1=NCCCN1 result_value=4.96
compound=O/N=C/c1sccc1Oc1ccccc1 result_value=0.35
compound=CC(C)[C@H]1COC(c2cccc(C3=N[C@@H](C(C)C)CO3)n2)=N1 result_value=5.5
compound=CCCN(CCC)S(=O)(=O)c1ccc(C(=O)NNC(=O)c2cc(OC)c(OC)c(OC)c2)cc1 result_value=-4.25
compound=O=S(=O)(CCN1CCC(C(F)(F)F)CC1)c1ccccc1 result_value=-7.12
compound=CC(=O)c1ccc(C#Cc2ccccc2)cc1 result_value=-5.26
compound=Cc1ccc(C(=O)N2CCN(c3cccc4[nH]ccc34)CC2)cc1 result_value=-3.77
compound=Oc1ccc(-n2cncn2)cc1 result_value=-7.43
compound="COc1ccc(COCC(O)CN2CCN(c3ccc(C(F)(F)F)cn3)CC2)cc1 (centres undefined)" result_value=-3.92
compound=O=C(Nc1ccccc1C(=O)NCc1c(F)cccc1Cl)c1ccccc1Cl result_value=2.65
compound=CCOC(=O)c1c(NS(=O)(=O)c2cccc3nsnc23)sc(C)c1C result_value=-17.3
compound=Cn1c(CN2C(=O)CSc3ccc(C(F)(F)F)cc32)nnc1SCC(=O)c1ccccc1 result_value=-0.94
compound="CCOC(=O)C1=C(C)NC(=O)NC1c1ccc(-c2cccc([N+](=O)[O-])c2)o1 (centres undefined)" result_value=-3.21
compound=O=C(O)c1nccnc1C(=O)NCCSCc1c(F)cccc1Cl result_value=-7.53
compound=Cc1ccc2c(c1)C(=O)C(=O)S2 result_value=6.48
compound=C=CCn1c(SCC(=O)Nc2nnc(-c3cccs3)s2)nnc1-c1ccco1 result_value=-3.96
compound=CCN(CCN1C(=O)CCC1=O)c1cccc(NC(C)=O)c1 result_value=-4.21
compound=COc1ccc(/C=N/Nc2nc(C)cc(=O)[nH]2)c(OC)c1 result_value=-3.66
compound=O=C(Nn1cnnc1)c1cccs1 result_value=1.09
compound=Cc1noc(C)c1S(=O)(=O)N1CCN(C2c3ccccc3-c3ccccc32)CC1 result_value=-0.47
compound=N/N=c1/nc2sccn2c2ncccc12 result_value=-0.03
compound=O=[N+]([O-])c1ccc(N2CCC2)cc1 result_value=8.05
compound=O=C(O)c1ccccc1/C=N/Nc1cc(Cl)ccc1Cl result_value=-2.5
compound=O=C(CCSc1nc2ccccc2o1)N1CCc2cc([N+](=O)[O-])ccc21 result_value=-4.41
compound=CCOC(=O)CNC(=O)CCc1cc(OC)c(OC)c(OC)c1 result_value=-5.89
compound=O=C(NNc1ccccc1C(F)(F)F)NS(=O)(=O)c1ccc(Cl)cc1 result_value=2.98
compound=COc1ccc(OCCC(=O)NNC(=S)Nc2cc(Cl)ccc2Cl)cc1 result_value=-3.16
compound=CC(C)(C)C(=O)OCC(N)=S result_value=-7.02
compound=CCOc1ccc(C(N)=O)c(SCC(=O)O)c1 result_value=-4.29
compound=CCOc1cc(-c2cccs2)nc(N)n1 result_value=1.81
compound=CC(C)CCOS(=O)(=O)c1ccc2c(c1)Cc1cc(S(=O)(=O)OCCC(C)C)ccc1-2 result_value=4.69
compound="O=C(O)CC(CC(=O)N1CCOCC1)c1ccccc1 (centres undefined)" result_value=-5.3
compound="N#CC(c1cc2ccccc2cn1)c1ccc2c(c1[N+](=O)[O-])C(=O)c1ccccc1C2=O (centres undefined)" result_value=8.07
compound=O=C(Oc1ccc(Cl)cc1)c1snnc1-c1ccccc1 result_value=-12.5
compound=OCCNC(=S)Nc1ccccc1-c1ccccc1 result_value=6.35
compound=Cc1cc2c(cn1)C(=O)c1ccccc1-2 result_value=-3.73
compound=N#CCSc1ccc2ccccc2c1 result_value=-1.93
compound=CSc1sc(C(N)=O)cc1C#N result_value=-2.28
compound=Cc1nc2sc(-c3ccccc3)cc2c(=O)o1 result_value=4.05
